# Species: Felis catus
# protocolDetails: Response ratio = (percent increase to drug)/(percent increase to 10 E-4 M isoproterenol)
# Format: functional
// map Response ratio onto a label; ranges bottom bin: < 0.6; middle bin: ≥ 0.6 and < 1; top bin: ≥ 1

Example entries begin here.
c1ccc(-c2nc3ccc[nH]c-3n2)cc1 = bottom bin
COc1cc([S+](C)[O-])ccc1-c1nc2cccnc2[nH]1 (stereo unspecified) = middle bin
COCCCOc1cc(OC)ccc1-c1nc2cc[nH]cc-2n1 = middle bin
c1ccc(-c2nc3ccccc3[nH]2)cc1 = bottom bin
COc1cc(C)ccc1-c1nc2cc[nH]cc-2n1 = top bin

Input: Lab note: which band did COc1cc(Oc2ccccc2)ccc1-c1nc2cc[nH]cc-2n1 land in?
Output: middle bin

Input: Kindly identify the class of COc1cc(OC)c(-c2nc3cc[nH]cc-3n2)cc1OC .
Output: bottom bin

Input: Looking at Cc1cccc(-c2nc3cc[nH]cc-3n2)c1 , which class would you pick?
Output: top bin

Input: // bin(item) where item = COc1cccc(-c2nc3cc[nH]cc-3n2)c1
Output: top bin

Input: Which bin, given its Response ratio, does Nc1cc(-c2ccncc2)c[nH]c1=O occupy?
Output: top bin

Input: Could you tell me which band COc1cc(OS(C)(=O)=O)ccc1-c1nc2cc[nH]cc-2n1 belongs to?
Output: top bin

* * *

# Test system: Canis familiaris
# protocolDetails: Percent change in mean arterial blood pressure in anesthetized dog
# Type: functional, Canis lupus familiaris
Change below -10% gives not fulfilled; Change at or above it gives fulfilled.

Worked cases, answers included:
c1ccc(-c2nc3ccc[nH]c-3n2)cc1 = not fulfilled
CCCOc1cc(OC)ccc1-c1nc2cc[nH]cc-2n1 = not fulfilled
COc1ccc(-c2nc3cc[nH]cc-3n2)c(OCC[S+](C)[O-])c1 (configuration not stated) = not fulfilled
COc1cc(SC)ccc1-c1nc2cc[nH]cc-2n1 = not fulfilled
COc1ccc(-c2nc3ccc[nH]c-3n2)c(OC)c1 = not fulfilled

Input: Does Change meet or surpass -10% for COc1cc([S+](C)[O-])ccc1-c1nc2cnccc2[nH]1 (configuration not stated) ?
Output: fulfilled

Input: Has CS(=O)(=O)c1ccc(-c2nc3cc[nH]cc-3n2)cc1 a recorded Change greater than or equal to -10%?
Output: fulfilled

Input: Has CS(=O)(=O)c1ccc(-c2nc3ccc[nH]c-3n2)cc1 a recorded Change greater than or equal to -10%?
Output: fulfilled

Input: Form field: Change at least -10%? Entry: COc1ccc(-c2nc3cc[nH]cc-3n2)cc1
Output: not fulfilled

Input: // inclusive: Change at least -10%? input: CCOc1cc(S(C)(=O)=O)ccc1-c1nc2cc[nH]cc-2n1
Output: not fulfilled

Input: Say whether Cc1ccccc1-c1nc2cc[nH]cc-2n1 shows Change of -10% or more.
Output: not fulfilled

Input: Does the reported Change for COc1ccc(-c2nc3cc[nH]cc-3n2)c(OC)c1 fall at or above the -10% mark?
Output: not fulfilled

* * *

# Species on record: Felis catus
# protocolDetails: Response ratio = (percent increase to drug)/(percent increase to 10 E-4 M isoproterenol)
# Format: functional
quantity: Response ratio
# output: bare number, no unit

Here is how some compounds turned out for Response ratio.
COc1ccc(-c2nc3cc[nH]cc-3n2)c([S+](C)[O-])c1 (stereo not drawn) = 0.22
CCOc1cc(S(C)(=O)=O)ccc1-c1nc2cc[nH]cc-2n1 = 1.36

Notebook: CCCOc1cc([S+](C)[O-])ccc1-c1nc2cc[nH]cc-2n1 (stereo not drawn) , Response ratio read as 0.82
